Test system: Escherichia coli TOP10;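 also: peptides expressed intracellularly from a pBAD plasmid library in pooled LB shake-flask culture, induced with 0.3% L-arabinose, DNA abundance read by NGS, three biological replicates, DESeq2 with apeglm shrinkage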
Assay: shrunken log2 fold change of peptide-encoding DNA abundance (4.5 h post-induction vs induction); higher = less antimicrobial activity (less host growth inhibition)
Conditions: time post-induction: 4.5 h; library: site-saturation at positions 5, 18, 19, 20
# binarize shrunken log2 fold change: threshold -0.08 inclusive, high side rule met, low side rule not met

In [3]: df
Out[3]:
                      chain      category
 0  RRIRERPPRLPRPRPRPTYRPRP      rule met
 1  RRIRGRPPRLPRPRPRPMENPRP      rule met
 2  RRIRFRPPRLPRPRPRPHCGPRP  rule not met
 3  RRIRCRPPRLPRPRPRPLGQPRP      rule met
 4  RRIRTRPPRLPRPRPRPIIKPRP  rule not met
 5  RRIRNRPPRLPRPRPRPPCCPRP      rule met
 6  RRIRDRPPRLPRPRPRPAQHPRP      rule met
 7  RRIRPRPPRLPRPRPRPTCEPRP      rule met
 8  RRIRMRPPRLPRPRPRPMWFPRP      rule met
 9  RRIRSRPPRLPRPRPRPPSRPRP      rule met
10  RRIRLRPPRLPRPRPRPKETPRP      rule met
11  RRIRCRPPRLPRPRPRPCQQPRP      rule met
12  RRIRDRPPRLPRPRPRPWYAPRP      rule met
13  RRIRERPPRLPRPRPRPQYFPRP  rule not met
14  RRIRLRPPRLPRPRPRPRMSPRP  rule not met
15  RRIRFRPPRLPRPRPRPHYNPRP  rule not met
16  RRIRWRPPRLPRPRPRPVFFPRP      rule met
17  RRIRSRPPRLPRPRPRPRCNPRP      rule met
18  RRIRVRPPRLPRPRPRPDNEPRP  rule not met
19  RRIRVRPPRLPRPRPRPNLRPRP      rule met
20  RRIRMRPPRLPRPRPRPCDTPRP      rule met
21  RRIRGRPPRLPRPRPRPPVFPRP      rule met
22  RRIRYRPPRLPRPRPRPEFTPRP      rule met
23  RRIRYRPPRLPRPRPRPVFWPRP      rule met
24  RRIRPRPPRLPRPRPRPHRLPRP      rule met
25  RRIRVRPPRLPRPRPRPFLLPRP  rule not met
26  RRIRSRPPRLPRPRPRPFTKPRP  rule not met
27  RRIRYRPPRLPRPRPRPYIRPRP      rule met
28  RRIRTRPPRLPRPRPRPDWTPRP  rule not met
29  RRIRMRPPRLPRPRPRPHHIPRP  rule not met
